The origin of these recorded values is patent US9738640B2.

molecules and their reported IC50
Molecular target: human MAO-B (Homo sapiens (Human), UniProt P27338)
Sequence (P27338 whole entry): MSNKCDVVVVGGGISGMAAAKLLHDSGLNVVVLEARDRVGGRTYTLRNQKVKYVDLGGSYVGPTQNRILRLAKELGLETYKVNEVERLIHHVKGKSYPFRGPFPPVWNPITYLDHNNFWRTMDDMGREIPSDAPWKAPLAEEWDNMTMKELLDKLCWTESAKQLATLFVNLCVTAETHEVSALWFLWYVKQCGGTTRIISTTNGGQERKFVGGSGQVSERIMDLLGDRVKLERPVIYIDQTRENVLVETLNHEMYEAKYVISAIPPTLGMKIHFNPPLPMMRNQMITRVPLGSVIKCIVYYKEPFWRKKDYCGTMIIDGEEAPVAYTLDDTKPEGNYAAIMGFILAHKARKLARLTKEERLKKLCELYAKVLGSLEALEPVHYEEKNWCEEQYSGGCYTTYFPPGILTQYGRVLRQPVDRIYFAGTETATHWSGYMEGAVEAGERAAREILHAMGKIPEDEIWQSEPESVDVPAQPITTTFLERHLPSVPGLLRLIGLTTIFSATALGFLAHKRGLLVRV
Test: Human MAO-B assay (Amplex Red fluorescence, recombinant enzyme)
Conditions: substrate p-tyramine
measured-parameter: IC50 (nM)

>>> value_measured("O=C(Nc1ccc2[nH]ccc2n1)c1ccc(F)c(Cl)c1")
3.27
>>> value_measured("O=C(Nc1ccc2c(ccn2C(=O)c2ccc(Cl)c(F)c2)n1)c1ccc(Cl)c(F)c1")
27.5
>>> value_measured("O=C(Nc1ccc2[nH]ccc2n1)c1ccc(F)c(F)c1")
46.1
>>> value_measured("O=C(Nc1ccc2[nH]ccc2n1)c1ccc(Cl)c(F)c1")
10.9
>>> value_measured("O=C(Nc1cc2cc[nH]c2cn1)c1ccc(F)c(F)c1")
277
>>> value_measured("O=C(Nc1cc2cc[nH]c2cn1)c1ccc(Cl)c(Cl)c1")
28.5
>>> value_measured("O=C(Nc1cc2cc[nH]c2cn1)c1ccc(F)c(Cl)c1")
72
